# Experiment notes: Experiment on brain distribution in rats
# Format: in vivo, SD rats
# Protocol conditions: rat, po; SD rats, ig 2 mg/kg, plasma
Parameter measured: AUC(0-t) at 8 h (ng·h/mL)
Write down the numeric answer in ng·h/mL and omit the unit.

So for CNC(=O)n1cc2c(n1)CN([C@H]1CN(Cc3ccc4cc(C(F)(F)F)c(=O)[nH]c4c3F)[C@H]1C)C2 [Compound 55] , the logged AUC(0-t) at 8 h turned out to be 5530

----------
# Target desc: PARP1 (Homo sapiens, UniProt P09874)
# Sequence (P09874 whole entry): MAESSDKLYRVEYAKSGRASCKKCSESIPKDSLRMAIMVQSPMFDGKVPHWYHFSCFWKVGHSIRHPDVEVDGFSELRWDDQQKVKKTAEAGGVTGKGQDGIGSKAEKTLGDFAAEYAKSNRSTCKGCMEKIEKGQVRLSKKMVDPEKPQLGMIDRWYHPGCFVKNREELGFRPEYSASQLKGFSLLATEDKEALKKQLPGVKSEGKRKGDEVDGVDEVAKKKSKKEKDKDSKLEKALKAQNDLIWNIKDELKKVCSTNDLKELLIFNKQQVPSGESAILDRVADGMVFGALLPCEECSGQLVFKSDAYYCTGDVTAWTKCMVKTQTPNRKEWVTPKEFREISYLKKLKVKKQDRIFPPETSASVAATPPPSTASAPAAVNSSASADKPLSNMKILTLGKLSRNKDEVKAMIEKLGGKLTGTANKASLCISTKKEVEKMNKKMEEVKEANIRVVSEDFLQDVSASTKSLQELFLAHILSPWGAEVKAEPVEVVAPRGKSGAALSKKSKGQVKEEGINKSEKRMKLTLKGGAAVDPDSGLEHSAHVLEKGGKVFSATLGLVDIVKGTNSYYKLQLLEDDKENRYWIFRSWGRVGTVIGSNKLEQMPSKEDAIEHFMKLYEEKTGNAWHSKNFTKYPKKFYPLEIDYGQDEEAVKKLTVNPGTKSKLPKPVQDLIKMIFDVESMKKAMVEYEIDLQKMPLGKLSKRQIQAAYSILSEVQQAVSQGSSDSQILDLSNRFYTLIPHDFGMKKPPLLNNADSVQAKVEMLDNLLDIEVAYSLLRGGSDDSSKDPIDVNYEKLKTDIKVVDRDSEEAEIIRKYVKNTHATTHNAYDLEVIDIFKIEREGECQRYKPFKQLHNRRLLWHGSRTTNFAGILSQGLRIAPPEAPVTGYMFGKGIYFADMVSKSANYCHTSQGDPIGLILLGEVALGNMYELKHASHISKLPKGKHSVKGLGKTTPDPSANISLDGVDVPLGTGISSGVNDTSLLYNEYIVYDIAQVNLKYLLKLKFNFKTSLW
# Experiment notes: Assay on PARP1 protein activity (chemiluminescence assay kit)
For each record, write down the corresponding IC50.

Measured on PARP1 (Homo sapiens, UniProt P09874), CNC(=O)n1cc2c(n1)CN([C@H]1CN(Cc3ccc4cc(C5CC5)c(=O)[nH]c4c3)[C@H]1C)C2 has a documented IC50 of < 1 nM

Measured on PARP1 (Homo sapiens, UniProt P09874), CCc1cc2ccc(CN3C[C@H](N4Cc5cn(C(=O)NC)nc5C4)[C@@H]3C)cc2[nH]c1=O has a documented IC50 of < 10 nM

Measured on PARP1 (Homo sapiens, UniProt P09874), CCc1cc2ncc(CN3C[C@H](N4Cc5cn(C(=O)NC)nc5C4)[C@@H]3C)cc2[nH]c1=O has a documented IC50 of < 1 nM

Measured on PARP1 (Homo sapiens, UniProt P09874), CNC(=O)n1cc2c(n1)CN([C@H]1CN(Cc3ccc4c(C)c(C(F)(F)F)c(=O)[nH]c4c3)[C@H]1C)C2 has a documented IC50 of < 1 nM

Measured on PARP1 (Homo sapiens, UniProt P09874), CNC(=O)n1cc2c(n1)CN(C1CN(Cc3ccc4c(C)c(C(F)(F)F)c(=O)[nH]c4c3)C1)C2 has a documented IC50 of < 1 nM

Measured on PARP1 (Homo sapiens, UniProt P09874), CNC(=O)n1cc2c(n1)CN([C@H]1CN(Cc3ccc4cc(C(F)(F)F)c(=O)[nH]c4c3F)[C@H]1C)C2 has a documented IC50 of < 1 nM
